Test system: HAB1
Assay: Yeast two hybrid of pBD-PYR1 site saturation mutants with pACT-HAB1 on 10 μM ABA, β-galactosidase staining
Assay type: cell-based, Arabidopsis
Set-up: key: x: Mutations in PYR1 that disrupt ABA-induced binding to PYR1 to HAB1
Details: S. cerevisiae Y190, 10 μM ABA; dead = lack of visible staining in comparison to wild type control
property: Mutations in PYR1 that disrupt ABA-induced binding to PYR1 to HAB1

| molecule | assay.result |
| --- | --- |
| P148G: PYR1 mutant (protein, UniProt O49686 1-191, looked up, variant P148G) Abscisic acid receptor PYR1: MPSELTPEERSELKNSIAEFHTYQLDPGSCSSLHAQRIHAPPELVWSIVRRFDKPQTYKHFIKSCSVEQNFEMRVGCTRDVIVISGLPANTSTERLDILDDERRVTGFSIIGGEHRLTNYKSVTTVHRFEKENRIWTVVLESYVVDMGEGNSEDDTRMFADTVVKLNLQKLATVAEAMARNSGDGSGSQVT | x |
| L117Y: PYR1 mutant (protein, UniProt O49686 1-191, looked up, variant L117Y) Abscisic acid receptor PYR1: MPSELTPEERSELKNSIAEFHTYQLDPGSCSSLHAQRIHAPPELVWSIVRRFDKPQTYKHFIKSCSVEQNFEMRVGCTRDVIVISGLPANTSTERLDILDDERRVTGFSIIGGEHRYTNYKSVTTVHRFEKENRIWTVVLESYVVDMPEGNSEDDTRMFADTVVKLNLQKLATVAEAMARNSGDGSGSQVT | x |
